Tested on: Cryptococcus neoformans
test-protocol: Antifungal activity against Cryptococcus neoformans ATCC 90112 after 48 to 96 hrs by broth microdilution method
Assay type: functional
metric: MIC (µg/mL)

Known MIC results, listed for orientation:
compound=C=CC(C)(C)c1c(O)cc2oc3c(O)c(O)ccc3c(=O)c2c1O study_target="Cryptococcus neoformans" numeric_result=2
compound="CC(C)=CCc1c(O)cc(O)c2c1OC(c1ccc(O)cc1)CC2=O (stereo not drawn)" study_target="Cryptococcus neoformans" numeric_result=64
compound=CC1(C)C=Cc2c(cc3oc4c(O)cccc4c(=O)c3c2O)O1 study_target="Cryptococcus neoformans" numeric_result=32
compound="CC1Oc2cc3oc4c(O)c(O)ccc4c(=O)c3c(O)c2C1(C)C (stereo not drawn)" study_target="Cryptococcus neoformans" numeric_result=8
compound=CC(C)=CCc1c(O)cc2oc3ccc(O)cc3c(=O)c2c1O study_target="Cryptococcus neoformans" numeric_result=128

P: CC(C)=CCc1c(O)cccc1C(=O)c1c(O)cc(O)c2c1OC(C)(C)C=C2
Q: CC(C)=CCc1cc(C(=O)c2cccc(O)c2CC=C(C)C)c(O)cc1O
R: CC(C)=CCc1c(O)cc2c(c1O)C(=O)CC(c1ccc(O)cc1O)O2 (stereo not drawn)
S: CC(C)=CCc1c(O)cccc1C(=O)c1c(O)cc(O)c(CC=C(C)C)c1O
Query :: # ascending order, key=MIC Use the labels to give the ranking in the order requested.
Result :: S, Q, P, R
(S: 2 µg/mL, Q: 4 µg/mL, P: 16 µg/mL, R: 32 µg/mL)

---

Tested on: Candida albicans
test-protocol: Antifungal activity against Candida albicans ATCC 90028 after 48 hrs by disk diffusion assay
Assay type: functional
metric: inhibition zone (IZ) (mm)
Please give a number only; it is taken to be in mm.

compound="COc1cc(O)c(C(=O)c2cccc(O)c2CC=C(C)C)c(O)c1 [CUDRANONE]" metric="inhibition zone (IZ)" unit_abbrev=mm numeric_result=9
compound="CC(C)=CCc1c(O)cccc1C(=O)c1c(O)cc(O)c2c1OC(C)(C)C=C2 [CUDRAPHENONE C]" metric="inhibition zone (IZ)" unit_abbrev=mm numeric_result=10
compound="C=CC(C)(C)c1c(O)cc2oc3c(O)c(O)ccc3c(=O)c2c1O [CUDRAXANTHONE S]" metric="inhibition zone (IZ)" unit_abbrev=mm numeric_result=9

Query :: Recorded inhibition zone (IZ) of CC(C)=CCc1c(O)cc2oc3ccc(O)cc3c(=O)c2c1O , please.
Result :: 9

Query :: Recorded inhibition zone (IZ) of Clc1ccc(COC(Cn2ccnc2)c2ccc(Cl)cc2Cl)c(Cl)c1 (stereo not given) [MICONAZOLE] , please.
Result :: 14

Query :: Recorded inhibition zone (IZ) of CC(C)=CCc1c(O)cc2occ(-c3ccc(O)cc3)c(=O)c2c1O [WIGHTEONE] , please.
Result :: 11

---

Test system: Cryptococcus neoformans
test-protocol: Antifungal activity against Cryptococcus neoformans ATCC 90112 after 48 to 96 hrs by broth microdilution method
Assay type: functional
Consider the following compounds and their measured MIC readings.
Please give a number only; it is taken to be in µg/mL.

compound="CC(C)=CCc1c(O)cc2occ(-c3ccc(O)cc3)c(=O)c2c1O [WIGHTEONE]" metric=MIC numeric_result=4

Query :: Recorded MIC of Clc1ccc(COC(Cn2ccnc2)c2ccc(Cl)cc2Cl)c(Cl)c1 (centres undefined) [MICONAZOLE] , please.
Result :: 0.064

---

Test system: Candida albicans
test-protocol: Antifungal activity against Candida albicans ATCC 90028 after 48 hrs by disk diffusion assay
Format: functional
metric: inhibition zone (IZ) (mm)
Please give a number only; it is taken to be in mm.

molecule="C[C@@H]1[C@H](O)[C@@H](C)/C=C/C=C/C=C/C=C/C=C/C=C/C=C/[C@H](O[C@@H]2O[C@H](C)[C@@H](O)[C@H](N)[C@@H]2O)C[C@@H]2O[C@](O)(C[C@@H](O)C[C@@H](O)[C@H](O)CC[C@@H](O)C[C@@H](O)CC(=O)O[C@H]1C)C[C@H](O)[C@H]2C(=O)O [AMPHOTERICIN B]" study_target="Candida albicans" metric="inhibition zone (IZ)" unit_abbrev=mm numeric_result=22

Query :: Which inhibition zone (IZ) is reported with Candida albicans for this entry: CC(C)=CCc1c(O)cccc1C(=O)c1c(O)cc(O)c(CC=C(C)C)c1O [CUDRAPHENONE D] ?
Result :: 11

Query :: Which inhibition zone (IZ) is reported with Candida albicans for this entry: CC(C)=CCc1c(O)cc2c(c1O)C(=O)CC(c1ccc(O)cc1O)O2 (centres undefined) [CUDRAFLAVANONE B] ?
Result :: 9

Query :: Which inhibition zone (IZ) is reported with Candida albicans for this entry: CC1Oc2cc3oc4c(O)c(O)ccc4c(=O)c3c(O)c2C1(C)C (centres undefined) [TOXYLOXANTHONE C] ?
Result :: 9
